- Tested on: OVCAR-5
- measurement.description: NCI tumour cell line growth inhibition, 48 h
Activity calls are given as the source filed them. No stated cut-off is given here; in the data, active = GI50 up to about 1.1 µM and inactive = higher.
measured.attribute: GI50

CC1CCC2C(C)C(=O)OC2C2(C)C(=O)C=CC12 (stereo not given)	> 10 µM (inactive)
O=C1O[C@H](c2ccc3c(c2)OCO3)[C@H]2CO[C@@H](c3ccc4c(c3)OCO4)[C@@H]12	> 100 µM (inactive)
CC12c3ccccc3C(OC=O)(c3ccccc31)C1(C)c3ccccc3C2(OC=O)c2ccccc21	> 100 µM (inactive)
Cc1cc(C)nc(NS(=O)(=O)c2ccc(Nc3c4ccc(Cl)cc4nc4c(C(=O)Nc5ccc(S(=O)(=O)N=C(N)N)cc5)cccc34)cc2)n1	> 100 µM (inactive)

Input line: Record request: GI50 value, item "CC1(C)O[C@H]2Cn3c(c(C#N)c4ccccc43)[C@H]2O1"
Output line: > 100 µM (inactive)

====

I'd appreciate it if you could supply GI50 values for the items below.
- Test system: ACHN
- measurement.description: NCI tumour cell line growth inhibition, 48 h
Activity calls are given as the source filed them. Cut-off read from the data, not from the text of the source: active = GI50 up to about 1.1 µM and inactive = higher.

Completed entries (count: 3):
CC(C)=CCc1cc2c(cc1O)OC[C@H]1c3cc4c(cc3O[C@@H]21)OCO4	42.4 µM (inactive)
O=[N+]([O-])C(=C/c1cccc2ccccc12)/C(=C\c1cccc2ccccc12)[N+](=O)[O-]	2.13 µM (inactive)
CC[C@@H]1CC[C@@H]2[C@H](CC[C@]3(C)[C@@H](OC(C)=O)CC[C@@H]23)[C@H]1COC(C)=O	53.8 µM (inactive)

Please examine the following record next.
Input line: Record request: GI50 value, item COc1ccc(C2[C@H]3C(=O)N(c4ccc(Cc5ccc(N6C(=O)[C@@H]7ON(c8ccccc8)C(c8ccc(OC)cc8)[C@@H]7C6=O)cc5)cc4)C(=O)[C@H]3ON2c2ccccc2)cc1 (some centres undefined)
Output line: > 100 µM (inactive)

====

- System: HT-29
- measurement.description: NCI tumour cell line growth inhibition, 48 h
The source made the active and inactive calls. No stated cut-off is given here; in the data, active = GI50 up to about 1.1 µM and inactive = higher.
I'd appreciate it if you could supply GI50 values for the items below.

Completed entries (count: 5):
O=C1/C(=C/c2cccc(Oc3ccccc3)c2)N=C(c2ccccc2)N1c1nc2ccc(Sc3ccccc3)cc2[nH]1	23.5 µM (inactive)
CCOC(=O)[N-]c1ccc(S(=O)(=O)[O+](C)CCl)cc1.CCOC(=O)[N-]c1ccc(S(=O)(=O)[O+](C)CCl)cc1.NC(=O)N=O.NC(=O)OCCCl	> 100 µM (inactive)
C/C(=N\NC(=N)N)C(CN1CCCCC1)C(c1ccccc1)c1c(O)c2ccccc2oc1=O (centres undefined)	> 100 µM (inactive)
O=C1c2c(n(Cc3ccccc3)c(=O)n2Cc2ccccc2)C(=O)N1Cc1ccccc1	82.2 µM (inactive)
Cc1cccc(NC(=O)Cc2nc3ccccc3s2)c1C	> 100 µM (inactive)

Value sought for every listed molecule: GI50.
1. COC(=O)C1CC/C(=N\c2cccc(C(F)(F)F)c2)N1 (centres undefined)
2. COc1cc(/C=C2/SC(c3ccccc3)N(c3ccc(NC(C)=O)cc3)C2=O)cc(OC)c1OC (centres undefined)
3. O=c1c2cc([N+](=O)[O-])ccc2sc2ccsc12
4. OC1c2ccccc2C2(O)C1C(c1ccccc1)C(c1ccccc1)C2(O)c1ccccc1 (centres undefined)

Output line:
> 100 µM (inactive)
> 100 µM (inactive)
> 100 µM (inactive)
9.86 µM (inactive)
